# Test system: E. coli ATCC 25922
# Type: cell-based, Escherichia coli
# CONDITIONS: ATCC 25922, 20 h
Where a SMILES comes first, the peptide text is derived from it. [ ]: non-standard residue; d: D form. The star is where a group is joined. d(aIle) = CC[C@H](C)[C@@H](N)C(=O)O; dDab = NCC[C@@H](N)C(=O)O; Octanoyl = CCCCCCCC(=O)*; Dab = NCC[C@H](N)C(=O)O
MEASURED_ENDPOINT: MIC
Returns: string containing the numeric result and its unit.

Below, 3 molecules whose answers are already recorded.
• CCCCCCCC(=O)N[C@@H](C(=O)N[C@H](CCN)C(=O)NCC(=O)N[C@H](CO)C(=O)N[C@H](Cc1c[nH]c2ccccc12)C(=O)N[C@@H](CO)C(=O)N[C@@H](CCN)C(=O)N[C@H](CCN)C(=O)N[C@@H](CO)C(=O)N[C@@H](CCC(=O)O)C(=O)N[C@H](C(=O)N[C@@H](C(=O)N[C@@H](C)C(=O)O)[C@@H](C)CC)C(C)C)C(C)C [Oct-Ser9] (Octanoyl-[dV][dDab]G[dS][dW]S[Dab][dDab]SEV[d(aIle)]A-OH) = 32 µg/mL
• CCCCCCCC(=O)N[C@@H](C(=O)N[C@H](CCN)C(=O)NCC(=O)N[C@H](CO)C(=O)N[C@H](Cc1c[nH]c2ccccc12)C(=O)N[C@@H](CO)C(=O)N[C@@H](CCN)C(=O)N[C@H](CCN)C(=O)NCC(=O)N[C@@H](CCC(=O)O)C(=O)N[C@H](C(=O)N[C@@H](C(=O)N[C@@H](C)C(=O)O)[C@@H](C)CC)C(C)C)C(C)C [Oct-Gly9] (Octanoyl-[dV][dDab]G[dS][dW]S[Dab][dDab]GEV[d(aIle)]A-OH) = 16 µg/mL
• CCCCCCCC(=O)N[C@@H](C(=O)N[C@H](CCN)C(=O)NCC(=O)N[C@H](CO)C(=O)N[C@H](Cc1c[nH]c2ccccc12)C(=O)N[C@@H](CO)C(=O)N[C@@H](CCN)C(=O)N[C@H](CCN)C(=O)N[C@H](C(=O)N[C@@H](CCC(=O)O)C(=O)N[C@H](C(=O)N[C@@H](C(=O)N[C@@H](C)C(=O)O)[C@@H](C)CC)C(C)C)C(C)C)C(C)C [Oct-Val9] (Octanoyl-[dV][dDab]G[dS][dW]S[Dab][dDab]VEV[d(aIle)]A-OH) = 4 µg/mL

INPUT: Given CCCCCCCC(=O)N[C@@H](C(=O)N[C@H](CCN)C(=O)NCC(=O)N[C@H](CO)C(=O)N[C@H](Cc1c[nH]c2ccccc12)C(=O)N[C@@H](CO)C(=O)N[C@@H](CCN)C(=O)N[C@H](CCN)C(=O)N[C@@H](Cc1ccccc1)C(=O)N[C@@H](CCC(=O)O)C(=O)N[C@H](C(=O)N[C@@H](C(=O)N[C@@H](C)C(=O)O)[C@@H](C)CC)C(C)C)C(C)C [Oct-TriA1] (Octanoyl-[dV][dDab]G[dS][dW]S[Dab][dDab]FEV[d(aIle)]A-OH) , state its recorded MIC.
OUTPUT: 2 µg/mL

###

Catalogue of compounds with associated MIC
# Test system: ATCC 25922
# Type: cell-based, Enterococcus faecalis
# CONDITIONS: ATCC 25922, 20 h
Where a SMILES comes first, the peptide text is derived from it. [ ]: non-standard residue; d: D form. The star is where a group is joined. d(aIle) = CC[C@H](C)[C@@H](N)C(=O)O; dDab = NCC[C@@H](N)C(=O)O; Octanoyl = CCCCCCCC(=O)*; Dab = NCC[C@H](N)C(=O)O
Quick note: give the figure in mg/L, leave out the unit.

• CCCCCCCC(=O)N[C@@H](C(=O)N[C@H](CCN)C(=O)NCC(=O)N[C@H](CO)C(=O)N[C@H](Cc1c[nH]c2ccccc12)C(=O)N[C@@H](CO)C(=O)N[C@@H](CCN)C(=O)N[C@H](CCN)C(=O)N[C@@H](Cc1c[nH]c2ccccc12)C(=O)N[C@@H](CCC(=O)O)C(=O)N[C@H](C(=O)N[C@@H](C(=O)N[C@@H](C)C(=O)O)[C@@H](C)CC)C(C)C)C(C)C [Oct-TriA5] (Octanoyl-[dV][dDab]G[dS][dW]S[Dab][dDab]WEV[d(aIle)]A-OH) = 8

Now for another entry.
INPUT: Could you share which MIC value was measured for CCCCCCCC(=O)N[C@@H](C(=O)N[C@H](CCN)C(=O)NCC(=O)N[C@H](CO)C(=O)N[C@H](Cc1c[nH]c2ccccc12)C(=O)N[C@@H](CO)C(=O)N[C@@H](CCN)C(=O)N[C@H](CCN)C(=O)N[C@@H](Cc1ccc(O)cc1)C(=O)N[C@@H](CCC(=O)O)C(=O)N[C@H](C(=O)N[C@@H](C(=O)N[C@@H](C)C(=O)O)[C@@H](C)CC)C(C)C)C(C)C [Oct-Tyr9] (Octanoyl-[dV][dDab]G[dS][dW]S[Dab][dDab]YEV[d(aIle)]A-OH) ?
OUTPUT: 64
